Origin of the recorded values: patent US20260334439A1

- MEASUREMENT TARGET: BCAT2 (Homo sapiens, UniProt O15382)
- Sequence (O15382 28-392): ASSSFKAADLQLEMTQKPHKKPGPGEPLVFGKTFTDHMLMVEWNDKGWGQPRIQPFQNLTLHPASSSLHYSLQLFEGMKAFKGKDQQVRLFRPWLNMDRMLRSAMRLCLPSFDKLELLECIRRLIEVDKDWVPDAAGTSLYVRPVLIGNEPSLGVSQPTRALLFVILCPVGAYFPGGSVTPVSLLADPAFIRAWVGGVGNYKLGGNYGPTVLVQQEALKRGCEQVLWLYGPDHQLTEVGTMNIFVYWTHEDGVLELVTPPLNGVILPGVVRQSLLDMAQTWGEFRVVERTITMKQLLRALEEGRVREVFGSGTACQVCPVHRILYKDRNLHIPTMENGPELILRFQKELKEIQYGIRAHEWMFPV
- EXPERIMENT SUMMARY: BCAT2 cell inhibition using engineered A549 cells (MUT KO, BCAT1 KO; 13C6-KMV formation by LC-MS/MS)
- Type: cell-based
- Design: expressed endogenous BCAT2; endogenous in cells; host or cells: A549 cells, MUT knockout and BCAT1 knockout
pIC50: −log10 of the molar value.
READOUT NAME: pIC50

In the examples that follow, each entry is paired with its recorded pIC50.
O=c1c2cc(F)ccc2ncn1[C@H]1CCC[C@@H](n2c(-c3ccccc3F)nc3cnc(-c4nc[nH]n4)cc32)C1 ... > 7.00
O=C1c2cc(Cl)ccc2CN1[C@H]1CCC[C@@H](n2c(-c3ccccc3F)nc3cnc(-c4nc[nH]n4)cc32)[C@@H]1O ... > 7.00
COCCOc1ccc(F)cc1C(=O)N[C@H]1CCC[C@@H](n2c(-c3ccccc3F)nc3cnc(-c4nc[nH]n4)cc32)C1 ... > 7.00
COc1ccc(Cl)cc1C(=O)N[C@H]1CCC[C@@H](n2c(-c3ccccc3F)nc3cnc(-c4nc[nH]n4)cc32)C1 ... > 7.00
CCOc1ncc(Cl)cc1C(=O)N[C@H]1CCC[C@@H](n2c(-c3ccccc3F)nc3cnc(-c4nc[nH]n4)cc32)C1 ... > 7.00
CN1C[C@H](NC(=O)c2cc(F)ccn2)C[C@H](n2c(-c3ccccc3F)nc3cnc(-c4nc[nH]n4)cc32)C1 ... 6.30 to 7.00
COc1ccc(C#N)cc1C(=O)N[C@H]1CCC[C@@H](n2c(-c3ccccc3F)nc3cnc(-c4nc[nH]n4)cc32)C1 ... 6.00 to 6.30
O=C(N[C@H]1CCC[C@@H](n2c(-c3ccccc3F)nc3ccc(-c4nc[nH]n4)cc32)C1)c1cc(F)ccn1 ... 6.30 to 7.00

Entry CN1C[C@H](NC(=O)c2cc(Cl)ccc2F)C[C@H](n2c(-c3ccccc3F)nc3cnc(-c4nc[nH]n4)cc32)C1 , pIC50 reported as 6.30 to 7.00

Per the record, Cc1coc(-c2cc3c(cn2)nc(-c2ccccc2OCCO)n3[C@@H]2CCC[C@H](N3Cc4ccc(F)cc4C3=O)C2)n1 has pIC50 of > 7.00

For O=C1c2cc(Cl)ccc2OCN1[C@H]1CCC[C@@H](n2c(-c3ccccc3F)nc3cnc(-n4nccn4)cc32)[C@@H]1O the compound record lists pIC50 as > 7.00

Looking up O=C1c2cc(F)ccc2CN1[C@H]1CCC[C@@H](n2c(-c3ccccc3OC(F)F)nc3ccc(-c4nc[nH]n4)c(F)c32)C1 , I see its pIC50 listed as > 7.00

The measured pIC50 associated with CO[C@H]1C[C@H](N2Cc3ccc(F)cc3C2=O)C[C@H](n2c(-c3c(O)cccc3F)nc3cnc(-c4nc[nH]n4)cc32)C1 reads 6.30 to 7.00
